# System: DFO2036
# method description: qHTS profiling for inhibitors of Plasmodium falciparum proliferation (AID 504749); also: nearly all actives have a fitted effect of over 60% in size
# reported conditions: P. falciparum in erythrocytes, SYBR Green DNA, 72 h; series mostly up to 28.7 µM
# Description: NIH National Institute of Allergy and Infectious Diseases [NIAID] NIH Chemical Genomics Center [NCGC] […] Because mature erythrocytes lack DNA, only Plasmodium-derived DNA is detected. NCGC Assay Protocol Summary: The SYBR Green viability assay was adapted from a method described previously (Plouffe et al., 2008). […] The following morning, fluorescence intensity at 485(14) nm excitation and 535(25) nm emission wavelengths was measured on an EnVision (Perkin Elmer) plate reader. […]
Inconclusive results are not listed. Activity calls are given as the source filed them. Calls follow the shape of the dose curve; as a rule, active = well fitted inhibition curve with a large enough effect; inconclusive = small, poorly fitted or top-dose-only effect; inactive = flat fitted curve, though single readings scatter.
metric name: outcome

| compound | test value |
| --- | --- |
| NC(=O)C1CC2(NC(=O)NC2=O)c2cc(F)ccc2O1 (stereo not drawn) | inactive |
| CC1CN(c2c(F)c(N)c3c(=O)c(C(=O)O)cn(C4CC4)c3c2F)CC(C)N1 (stereo not drawn) | inactive |
| COC(=O)C1C2CC3c4[nH]c5cc(OC)ccc5c4CCN3CC2CC(OC)C1OC (stereo not drawn) | inactive |
